Ref: ChEMBL document CHEMBL1143979

target: Adenosine receptor A2a (Homo sapiens); experiment: Displacement of [3H]ZM-241385 from human adenosine A2A receptor expressed in CHO cells at 0.1 uM; type: cell-based
Sequence (P29274 whole entry): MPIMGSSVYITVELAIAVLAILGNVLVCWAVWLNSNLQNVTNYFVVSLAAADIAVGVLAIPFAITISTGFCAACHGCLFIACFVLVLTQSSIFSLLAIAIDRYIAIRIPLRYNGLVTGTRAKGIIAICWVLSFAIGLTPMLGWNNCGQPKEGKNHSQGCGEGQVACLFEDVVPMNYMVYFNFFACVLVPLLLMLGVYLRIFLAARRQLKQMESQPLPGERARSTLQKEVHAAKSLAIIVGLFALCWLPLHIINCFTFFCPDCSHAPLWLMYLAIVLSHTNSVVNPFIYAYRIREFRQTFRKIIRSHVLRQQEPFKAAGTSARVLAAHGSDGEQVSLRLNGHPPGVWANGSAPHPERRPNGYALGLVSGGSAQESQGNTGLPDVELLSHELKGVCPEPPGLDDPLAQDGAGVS
This section presents compounds with their documented Activity values.
QUANTITY NAME: Activity (%)

STRUCTURE STRING	TARGET OR TEST SYSTEM	QUANTITY NAME	VALUE OBSERVED
COc1ccc(N2CCN(C(=O)COc3ccc(-c4cc5c([nH]4)c(=O)n(C)c(=O)n5C)c(OC)c3)CC2)cc1	Adenosine receptor A2a (Homo sapiens)	Activity	1
Cn1c(=O)c2[nH]c(-c3ccc(OC(C)(C)C(=O)N4CCC(c5ccccc5)(c5ccccc5)CC4)cc3)cc2n(C)c1=O	Adenosine receptor A2a (Homo sapiens)	Activity	8
CCCn1c(=O)c2[nH]c(-c3ccc(OCC(=O)N4CCN(c5cnccn5)CC4)cc3)cc2n(CCC)c1=O	Adenosine receptor A2a (Homo sapiens)	Activity	11
O=C(COc1ccc(-c2cc3c([nH]2)c(=O)n(CC(F)(F)F)c(=O)n3CC(F)(F)F)cc1)N1CCN(c2ccccc2)CC1	Adenosine receptor A2a (Homo sapiens)	Activity	3
CCCn1c(=O)n(C)c(=O)c2[nH]c(-c3ccc(OC(C)(C)C(=O)N4CCC(c5ccccc5)(c5ccccc5)CC4)cc3)cc21	Adenosine receptor A2a (Homo sapiens)	Activity	11

* * *

Molecular target: Adenosine receptor A2b (Homo sapiens, UniProt P29275)
Sequence (P29275 whole entry): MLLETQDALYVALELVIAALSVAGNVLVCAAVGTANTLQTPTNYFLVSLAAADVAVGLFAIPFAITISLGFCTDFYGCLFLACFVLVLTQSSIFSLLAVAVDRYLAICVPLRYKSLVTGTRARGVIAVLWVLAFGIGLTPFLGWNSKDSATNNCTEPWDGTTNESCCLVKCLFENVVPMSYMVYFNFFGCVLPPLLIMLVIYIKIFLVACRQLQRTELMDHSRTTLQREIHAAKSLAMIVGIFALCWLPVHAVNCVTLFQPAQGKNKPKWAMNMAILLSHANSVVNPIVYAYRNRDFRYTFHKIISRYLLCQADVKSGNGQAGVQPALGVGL
Assay: Displacement of [3H]DPCPX from human adenosine A2B receptor expressed in HEK293 cells
Assay type: cell-based
Conditions: read-out: Log Ki (converted)
Doc: threshold 10 nM (exclusive). Items with Ki beneath it return met; others return not met.

COMPOUND	CLASS NAME
COc1cc(OCC(=O)N2CCc3ccccc3C2)ccc1-c1cc2c([nH]1)c(=O)n(C)c(=O)n2C	not met
CC(Oc1ccc(-c2cc3c([nH]2)c(=O)n(C)c(=O)n3C)cc1)C(=O)N1CCN(c2ccccc2Cl)CC1 (stereo not drawn)	not met
COCCn1c(=O)c2[nH]c(-c3ccc(OCC(=O)N4CCN(c5ccccc5)CC4)cc3)cc2n(CCOC)c1=O	met
Cn1c(=O)c2[nH]c(-c3ccc(OCC(=O)N4CCN(c5ccccn5)CC4)cc3)cc2n(C)c1=O	not met
CCCn1c(=O)n(C)c(=O)c2[nH]c(-c3ccc(OCC(=O)N4CCN(c5nc6ccc(Cl)cc6s5)CC4)cc3)cc21	met
CCCn1c(=O)c2[nH]c(-c3ccc(OCC(=O)N4CCC(c5ccccc5)(c5ccccc5)CC4)cc3)cc2n(CCC)c1=O	not met
COc1cc(OCC(=O)N2CCN(c3ccc(Cl)cc3)CC2)ccc1-c1cc2c([nH]1)c(=O)n(C)c(=O)n2C	not met
CCCn1c(=O)n(C)c(=O)c2[nH]c(-c3ccc(OCC(=O)N4CCN(c5ccccc5Cl)CC4)cc3)cc21	not met

* * *

species on record: Homo sapiens; test: Selectivity index, ratio for human adenosine A2A receptor to human adenosine A2B receptor

MOLECULE	Ratio
Cn1c(=O)c2[nH]c(-c3ccc(OCC(=O)N4CCN(c5ccc(C(F)(F)F)cc5)CC4)cc3)cc2n(C)c1=O	31.6
Cn1c(=O)c2[nH]c(-c3ccc(OCC(=O)N4CCN(Cc5ccccc5)CC4)cc3)cc2n(C)c1=O	28.8
CC(Oc1ccc(-c2cc3c([nH]2)c(=O)n(C)c(=O)n3C)cc1)C(=O)N1CCN(c2ccccc2)CC1 (centres undefined)	17.4
COc1cc(-c2cc3c([nH]2)c(=O)n(C)c(=O)n3C)ccc1OCC(=O)N1CCc2ccccc2C1	39

* * *

Molecular target: Adenosine receptor A2b (Homo sapiens)
Sequence (P29275 whole entry): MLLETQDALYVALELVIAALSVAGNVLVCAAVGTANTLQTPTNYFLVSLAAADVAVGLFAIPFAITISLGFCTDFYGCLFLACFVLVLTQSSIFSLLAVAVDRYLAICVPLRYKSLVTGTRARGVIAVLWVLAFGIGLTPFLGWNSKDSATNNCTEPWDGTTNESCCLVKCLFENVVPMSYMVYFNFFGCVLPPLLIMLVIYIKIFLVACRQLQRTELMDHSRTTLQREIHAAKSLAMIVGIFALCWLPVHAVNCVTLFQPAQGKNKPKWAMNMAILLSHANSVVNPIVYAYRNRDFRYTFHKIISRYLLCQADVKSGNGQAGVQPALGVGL
Assay: Displacement of [3H]DPCPX from human adenosine A2B receptor expressed in HEK293 cells
Assay type: cell-based
Details: read-out: Ki
pKi: −log10 of the molar value.

MOLECULE	pKi
CCCn1c(=O)n(C)c(=O)c2[nH]c(-c3ccc(OC(C)(C)C(=O)N4CCN(c5nc6ccc(Cl)cc6s5)CC4)cc3)cc21	9.00
CCCn1c(=O)n(C)c(=O)c2[nH]c(-c3ccc(OCC(=O)N4CCC(c5ccccc5)CC4)cc3)cc21	8.60
Cn1c(=O)c2[nH]c(-c3ccc(OC(C)(C)C(=O)N4CCN(c5nc6cc(Cl)ccc6s5)CC4)cc3)cc2n(C)c1=O	7.96
CCCn1c(=O)c2[nH]c(-c3ccc(OCC(=O)N4CCN(c5cccc(Cl)c5)CC4)cc3)cc2n(CCC)c1=O	8.82
CCCn1c(=O)n(C)c(=O)c2[nH]c(-c3ccc(OCC(=O)N4CCN(c5ccc(C(F)(F)F)cc5)CC4)cc3)cc21	8.70
Cn1c(=O)c2[nH]c(-c3ccc(OCC(=O)N4CCN(c5cccc(Cl)c5)CC4)cc3)cc2n(C)c1=O	8.52
Cc1ccc(N2CCN(C(=O)C(C)Oc3ccc(-c4cc5c([nH]4)c(=O)n(C)c(=O)n5C)cc3)CC2)cc1 (stereo not drawn)	8.70
CCCn1c(=O)n(C)c(=O)c2[nH]c(-c3ccc(OCC(=O)N4CCC(c5ccccc5)(c5ccccc5)CC4)cc3)cc21	8.26

* * *

Biological target: Adenosine receptor A2b (Homo sapiens)
Sequence (P29275 whole entry): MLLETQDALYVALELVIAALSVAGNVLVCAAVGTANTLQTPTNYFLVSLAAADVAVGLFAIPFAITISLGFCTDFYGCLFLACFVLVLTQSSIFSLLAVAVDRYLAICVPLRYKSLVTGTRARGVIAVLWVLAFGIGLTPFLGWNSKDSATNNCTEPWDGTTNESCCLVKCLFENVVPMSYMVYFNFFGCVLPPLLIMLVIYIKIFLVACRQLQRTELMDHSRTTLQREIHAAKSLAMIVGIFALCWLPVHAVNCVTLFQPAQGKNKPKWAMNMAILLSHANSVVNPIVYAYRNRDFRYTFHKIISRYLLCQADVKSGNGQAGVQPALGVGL
Assay: Displacement of [3H]DPCPX from human adenosine A2B receptor expressed in HEK293 cells
Assay type: cell-based
Settings: read-out: Log Ki (converted)

STRUCTURE STRING	UNIT OF MEASUREMENT	Ki
COc1cc(-c2cc3c([nH]2)c(=O)n(C)c(=O)n3C)ccc1OCC(=O)N1CCc2ccccc2C1	nM	170
CCCn1c(=O)n(C)c(=O)c2[nH]c(-c3ccc(OCC(=O)N4CCC(c5ccc(OC)cc5)CC4)cc3)cc21	nM	9.12
CCCn1c(=O)c2[nH]c(-c3ccc(OCC(=O)N4CCN(C(=O)Oc5ccccc5)CC4)cc3)cc2n(CCC)c1=O	nM	20.4
Cn1c(=O)c2[nH]c(-c3ccc(OCC(=O)N4CCc5ccccc5C4)cc3)cc2n(C)c1=O	nM	8.71

* * *

species: Homo sapiens; experiment: Selectivity index, ratio for human adenosine A2A receptor to human adenosine A2B receptor
This section presents compounds with their documented Ratio values.

COMPOUND	Ratio
CCCn1c(=O)c2[nH]c(-c3ccc(OCC(=O)N4CCN(C(=O)Oc5ccccc5)CC4)cc3)cc2n(CCC)c1=O	7.6
CCCn1c(=O)c2[nH]c(-c3ccc(OCC(=O)N4CCN(c5cccc(Cl)c5)CC4)cc3)cc2n(CCC)c1=O	75.9
CCCn1c(=O)n(C)c(=O)c2[nH]c(-c3ccc(OCC(=O)N4CCN(c5c(Cl)cncc5Cl)CC4)cc3)cc21	151
CCCn1c(=O)c2[nH]c(-c3ccc(OCC(=O)N4CCN(c5ccccc5Cl)CC4)cc3)cc2n(CCC)c1=O	5.5
Cn1c(=O)c2[nH]c(-c3ccc(OCC(=O)N4CCC(c5ccccc5)CC4)cc3)cc2n(C)c1=O	64.6
CC(Oc1ccc(-c2cc3c([nH]2)c(=O)n(C)c(=O)n3C)cc1)C(=O)N1CCN(c2ccc(Br)cc2)CC1 (stereo unspecified)	26
CCCn1c(=O)c2[nH]c(-c3ccc(OCC(=O)N4CCc5ccccc5C4)cc3)cc2n(CCC)c1=O	40.7
CN1CCN(C(=O)COc2ccc(-c3cc4c([nH]3)c(=O)n(C)c(=O)n4C)cc2)CC1	4.05
Cn1c(=O)c2[nH]c(-c3ccc(OCC(=O)N4CCN(c5ncccn5)CC4)cc3)cc2n(C)c1=O	30.9
Cn1c(=O)c2[nH]c(-c3ccc(OCC(=O)N4CCN(c5nc6cc(Cl)ccc6s5)CC4)cc3)cc2n(C)c1=O	50.1
Cn1c(=O)c2[nH]c(-c3ccc(OCC(=O)N4CCN(c5ccc(F)cc5)CC4)cc3)cc2n(C)c1=O	33.8
